Tested on: HTT mRNA
METHOD_DESCRIPTION: Splicing RT-qPCR assay (THP), Table 2A
Type: cell-based
DETAILS: Table 2A (THP), CJ mRNA decrease, read-out: HTT CJ (decrease in canonical junction mRNA, IC50)
MEASURED_PARAMETER: IC50

Request: Please indicate IC50 recorded for COc1nc2nc(C)cn2cc1NC(=O)c1c(F)cc(N2CCC(NC3CC3)CC2)c2cn(C)nc12
Result: 1 to 10 µM

Request: Please indicate IC50 recorded for COc1cc2nn(C)cc2cc1NC(=O)c1ccc(N2C[C@H](C)N[C@@H](C)C2)c2cn(C)nc12
Result: 1 to 10 µM

Request: Please indicate IC50 recorded for CN[C@H]1CCN(c2ccc(C(=O)Nc3cc(F)c4nc(C)cn4c3)c3nn(C)nc23)C1
Result: 0.1 to 1 µM

Request: Please indicate IC50 recorded for CC1OB(O)c2cc(NC(=O)c3c(F)cc(N4CCC(NC5CC5)CC4)c4cn(C)nc34)ccc21 (stereo not drawn) [Compound 490, 2,2,2-trifluoroacetate]
Result: > 10 µM

Request: Please indicate IC50 recorded for Cc1cn2cc(NC(=O)c3ccc(N4CCC(NC5CC5)CC4)c4cn(C)nc34)nc2c(-c2ccns2)n1
Result: > 10 µM

Request: Please indicate IC50 recorded for Cc1cn2cc(NC(=O)c3c(F)cc(NCC4CCNCC4)c4cn(C)nc34)nc2c(C)n1
Result: > 10 µM

Request: Please indicate IC50 recorded for Cc1cn2cc(NC(=O)c3ccc(OC4CCNC4)c4cn(C)nc34)nc2c(C)n1 (stereo not drawn)
Result: > 10 µM

Request: Please indicate IC50 recorded for COc1cc2nn(C)cc2cc1NC(=O)c1ccc(N2CCC(NC3CC3)CC2)c2c(C)n(C)nc12
Result: 0.1 to 1 µM

Request: Please indicate IC50 recorded for Cc1cn2cc(NC(=O)c3ccc(N4CCC(NC5CC5)CC4)c4cn(C)nc34)c(F)c2c(C)n1
Result: > 10 µM

Request: Please indicate IC50 recorded for CCNC1CCN(c2cc(F)c(C(=O)Nc3nc4c(C)nc(C)cc4o3)c3nn(C)cc23)CC1
Result: > 10 µM

Request: Please indicate IC50 recorded for Cc1cn2cc(NC(=O)c3ccc(NC4CCCNCC4)c4cn(C)nc34)nc2c(C)n1 (stereo not drawn)
Result: > 10 µM

Request: Please indicate IC50 recorded for CNC1CCN(c2ccc(C(=O)Nc3cn4cc(C)nc(C)c4c3F)c3nn(C)cc23)CC1
Result: > 10 µM

Request: Please indicate IC50 recorded for CCNC1CCN(c2ccc(C(=O)Nc3cn4cc(C)nc(CC)c4n3)c3nn(C)cc23)CC1
Result: 1 to 10 µM

Request: Please indicate IC50 recorded for COc1nc2nn(C)cc2cc1NC(=O)c1c(F)cc(N2CCC(NC3CC3)CC2)c2cn(C)nc12
Result: 0.1 to 1 µM

Request: Please indicate IC50 recorded for CN[C@H]1CCN(c2ccc(C(=O)Nc3cc(F)c4nc(C)cn4c3)c3nn(C)cc23)[C@@H]1C (single isomer, unassigned)
Result: > 10 µM

* * *

Test system: MYB mRNA
METHOD_DESCRIPTION: Gene panel canonical junction qPCR assay, decrease in CJ mRNA, Table 3
Assay type: cell-based
DETAILS: decrease in CJ mRNA levels, canonical junction qPCR, gene panel
pIC50: −log10 of the molar value.
MEASURED_PARAMETER: pIC50

Request: Please indicate pIC50 recorded for Cc1cn2cc(NC(=O)c3ccc(N4CCC(NC5CC5)CC4)c4cn(C)nc34)nc2c(CCN(C)C)n1
Result: < 5.00

Request: Please indicate pIC50 recorded for COc1nc2c(C(=O)Nc3cc(F)c4nc(C)cn4c3)ccc(N3C[C@H](C)N[C@@H](C)C3)c2s1
Result: > 7.00

Request: Please indicate pIC50 recorded for COc1cc2c(N3CCC(NC4CC4)CC3)ccc(C(=O)Nc3cc(CO)c4nn(C)cc4c3)n2n1
Result: > 7.00

Request: Please indicate pIC50 recorded for COc1cc2c(N3CCC(NC4CC4)CC3)ccc(C(=O)Nc3cn4cc(C)nc(C)c4n3)n2n1
Result: 6.00 to 7.00

Request: Please indicate pIC50 recorded for Cc1cn2cc(NC(=O)c3ccc(N4CCC(NC5CC5)CC4)c4cn(C)nc34)nc2c(CNS(C)(=O)=O)n1 [Compound 694, 2,2,2-trifluoroacetate]
Result: < 5.00

Request: Please indicate pIC50 recorded for C=CCNC1CCN(c2ccc(C(=O)Nc3cc(CO)c4nn(C)cc4c3)c3nn(C)cc23)CC1
Result: 6.00 to 7.00

Request: Please indicate pIC50 recorded for COc1nc2c(C(=O)Nc3ccc4nn(C)cc4n3)ccc(N3C[C@H](C)N[C@@H](C)C3)c2s1
Result: > 7.00
